- Assayed target: protein kinase B (UniProt P31749)
- Sequence (P31749 whole entry): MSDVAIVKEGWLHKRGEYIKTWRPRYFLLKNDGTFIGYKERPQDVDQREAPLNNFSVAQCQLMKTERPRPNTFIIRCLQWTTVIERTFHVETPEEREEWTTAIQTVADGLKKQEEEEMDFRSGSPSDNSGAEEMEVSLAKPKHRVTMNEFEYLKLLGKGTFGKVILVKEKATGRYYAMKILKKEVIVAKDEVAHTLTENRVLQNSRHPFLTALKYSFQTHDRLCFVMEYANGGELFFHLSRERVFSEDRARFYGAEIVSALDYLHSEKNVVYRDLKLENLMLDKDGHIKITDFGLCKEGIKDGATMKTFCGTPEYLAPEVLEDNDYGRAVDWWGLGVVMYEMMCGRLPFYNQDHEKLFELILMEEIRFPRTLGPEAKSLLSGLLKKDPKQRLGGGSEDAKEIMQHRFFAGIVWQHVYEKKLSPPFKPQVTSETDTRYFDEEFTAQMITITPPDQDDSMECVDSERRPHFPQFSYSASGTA
- Assay method text: cell-based or functional assay
Where no end group is shown, it is not given here. [ ]: non-standard residue; d: D form. hLeu = CC(C)CC[C@H](N)C(=O)O; Nva = CCC[C@H](N)C(=O)O; GlyNH2 = aminoglycine
Property label: % Inhibition PKB II (%)
Write the number in % without appending the unit.

| Binder | % Inhibition PKB II / % |
| --- | --- |
| RPR[Nva]TA[hLeu] [60005-84] | 48 |
| RPRT[GlyNH2]A[hLeu] [60005-32] | 44 |

Ask: Output measured % Inhibition PKB II for this item: RPR[Nva]S[GlyNH2][hLeu] [60005-75]
Result: 70

Ask: For the binder RPR[Nva]GA[hLeu] [60006-18A] , give its reported % Inhibition PKB II.
Result: 52
